experiment: chemical genetic growth profiling, strain panel (AID 1159580);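 also: tested at 20 µM; growth read once vehicle control cultures reached saturation at 30 °C; 1 = growth at the plate median or of vehicle wells; lower values mean less growth of the strain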; details: S. cerevisiae deletion strains, growth OD, locus YJR075W, strain HOC1
Among all 5,500 compounds or so, about 2,000 (36%) were called active. Inconclusive results (about 18%) are left out. Rule as the data show it: active = normalized growth mostly below about 0.91 (no sharp cut-off); inconclusive = no clear call, values can overlap the other calls; inactive = mostly above about 0.92. Some of the results follow.
Valid outcomes are listed here; reply with one: 1.0 (active), 0.0 (inactive)

{"compound": "CSc1nc(N)nc(C(C)(C)C)n1", "group.label": 0.0}
{"compound": "CSc1ccc(C(=O)O)s1", "group.label": 1.0}
{"compound": "N[C@@H]1CONC1=O", "group.label": 0.0}
{"compound": "CC(N)Cc1c[nH]c2ccc(OCc3cccs3)cc12 (stereo unspecified)", "group.label": 0.0}
{"compound": "CN1CCN(C2Cc3ccccc3Sc3ccc(Cl)cc32)CC1 (stereo unspecified)", "group.label": 1.0}
{"compound": "CCCn1c(=O)[nH]c(=O)c2[nH]cnc21", "group.label": 0.0}

Prompt line: Each compound tested received a call. Report the one for COc1ccc2cc3[n+](cc2c1OC)CCc1cc2c(cc1-3)OCO2 .
Response line: 1.0

Prompt line: Hey, what did the test say about CC(=O)O[C@@H]1CC2C(C)(C)C(=O)CC[C@]2(C)C2CC[C@@]3(C)[C@H](c4ccoc4)OC(=O)C4OC43[C@@]21C (stereo partly specified) ?
Response line: 0.0

Prompt line: Recorded test outcome, item O=C1NC(c2ccccc2Cl)Nc2ccccc21 (stereo unspecified)
Response line: 0.0

Prompt line: What was the test verdict on COc1cccc2c1cc([N+](=O)[O-])c1c(C(=O)O)cc3c(c12)OCO3 ?
Response line: 0.0

Prompt line: Write down the call the test reported for this compound. Item: CC(=O)O[C@H]1C[C@H](O[C@H]2[C@@H](O)C[C@H](O[C@H]3[C@@H](O)C[C@H](O[C@H]4CC[C@@]5(C)C(CCC6C5C[C@@H](O)[C@]5(C)[C@@H](C7=CC(=O)OC7)CC[C@]65O)C4)O[C@@H]3C)O[C@@H]2C)O[C@H](C)[C@H]1O[C@@H]1O[C@H](CO)[C@@H](O)[C@H](O)[C@H]1O (stereo partly specified)
Response line: 0.0

Prompt line: // param item: CC(=O)OC1CC2C(C)(C)CCCC2(C)C2CCC3(C)C(c4ccoc4)OC(=O)C4OC43C12C (stereo unspecified) ; yields the recorded call
Response line: 0.0

Prompt line: Field: outcome | Entry: CCN1CN=C(SCc2ccc(C)cc2)NC1
Response line: 0.0

Prompt line: # lookup: test call for CC(=O)[C@H]1CCC2C3CC=C4C[C@@H](O)CC[C@]4(C)C3CC[C@@]21C (stereo partly specified)
Response line: 0.0

Prompt line: Please state the recorded outcome for this compound: NCCc1ccc(O)cc1
Response line: 0.0

Prompt line: Per the records of this test, what outcome belongs to ClC(Cl)=C(c1ccc(Cl)cc1)c1ccc(Cl)cc1 ?
Response line: 0.0

Prompt line: Any idea what this test logged for COc1cc2cc[n+]3cc4c(OC)c(OC)ccc4cc3c2cc1OC ?
Response line: 0.0

Prompt line: Name the outcome recorded for Clc1ccc(Cl)cc1 in the assay.
Response line: 0.0

Prompt line: Hi team, can someone confirm the assay call for CCCCCCCCCCc1ccc(-c2ccccc2)cc1 ?
Response line: 0.0

Prompt line: # fetch the recorded call for CSc1ccc2c(c1)C(N1CCN(C)CC1)Cc1ccccc1S2 (stereo unspecified) here
Response line: 1.0

Prompt line: Could you kindly confirm the outcome this assay logged for COCCOC(=O)C1=C(C)NC(C)=C(C(=O)OC(C)C)C1c1cccc([N+](=O)[O-])c1 (stereo unspecified) ?
Response line: 0.0

Prompt line: Recorded test call requested for O=C(O)/C=C(\CC(=O)O)C(=O)O
Response line: 0.0

====

experiment: chemical genetic growth profiling, strain panel (AID 1159580);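 also: tested at 20 µM; growth read once vehicle control cultures reached saturation at 30 °C; 1 = growth at the plate median or of vehicle wells; lower values mean less growth of the strain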; settings: S. cerevisiae deletion strains, growth OD, locus YML094W, strain GIM5, hits give low values
About 2,000 (36%) of roughly 5,500 compounds were called active. Not shown: some 18% with an inconclusive outcome. This is one part of the list.
reported.metric: normalized growth
Enter a number only.

{"molecular.string": "O=C1CCCc2c1c1ccccc1n2Cc1ccccc1", "normalized growth": 0.91}
{"molecular.string": "COc1cc(NC(=O)NS(=O)(=O)c2ccc(C)cc2)cc(C(F)(F)F)c1", "normalized growth": 1.01}
{"molecular.string": "O=C(N/N=C\\c1ccccc1Cl)c1cccnc1", "normalized growth": 1}
{"molecular.string": "N/C(=N/OS(=O)(=O)c1ccc(Cl)cc1)c1ccc(C(F)(F)F)cc1", "normalized growth": 0.985}

Measured normalized growth, O=C(N/N=C\c1ccccc1Cl)N/N=C\c1ccccc1Cl : 0.773

Entry under test: CCCCCCCCCCc1ccc(-c2ccccc2)cc1 . Its normalized growth was 0.97

====

Measured normalized growth values are reported for all entries that follow.
test: chemical genetic growth profiling, strain panel (AID 1159580);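 also: tested at 20 µM; growth read once vehicle control cultures reached saturation at 30 °C; 1 = growth at the plate median or of vehicle wells; lower values mean less growth of the strain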; conditions: S. cerevisiae deletion strains, growth OD, locus YML124C, strain tub3, hits give low values
Hit rate of the full screen: of about 5,500 compounds, about 2,000 (36%) were called active. Not shown: some 18% with an inconclusive outcome. Some of the results follow.
Form rule: numeric answer, no unit written next to it.

Recorded results for 10 molecules are shown here.
{"molecule": "CC[N+]1(C)CCCC(OC(=O)C(O)(c2ccccc2)c2ccccc2)C1 (stereo unspecified)", "data.value": 1.01}
{"molecule": "CN(C)CC/C=C1/c2ccccc2COc2ccccc21", "data.value": 1.02}
{"molecule": "CC(=O)O[C@H]1C[C@@]2(C)[C@H](c3ccoc3)OC(=O)[C@H]3O[C@]32[C@@]2(C)C1[C@]1(C)C(C[C@H]2OC(C)=O)C(C)(C)[C@H](OC(C)=O)C[C@@H]1OC(C)=O (stereo partly specified)", "data.value": 0.993}
{"molecule": "CC(=O)O[C@@H]1CC2C(C)(C)[C@H](O)C[C@H](O)[C@]2(C)C2CC[C@@]3(C)[C@H](c4ccoc4)OC(=O)[C@H]4O[C@]43[C@@]21C (stereo partly specified)", "data.value": 0.975}
{"molecule": "Nc1ccc(C(=O)Oc2ccccc2)c(O)c1", "data.value": 0.904}
{"molecule": "Cc1coc2ccccc2c1=O", "data.value": 1.02}
{"molecule": "O=c1c2ccccc2oc2ccc(O)cc12", "data.value": 0.945}
{"molecule": "COc1ccc(-c2cc(=O)c3c(OC(C)=O)cc(OC(C)=O)cc3o2)cc1", "data.value": 0.958}
{"molecule": "COc1ccc(-c2coc3cc(O)cc(O)c3c2=O)cc1", "data.value": 0.449}
{"molecule": "O=c1c(-c2cc(O)c(O)c(O)c2)coc2cc(O)c(O)c(O)c12", "data.value": 0.99}

// normalized growth value for Cn1nnnc1SCC1=C(C(=O)O)N2C(=O)C(NC(=O)C(O)c3ccccc3)C2SC1 (stereo unspecified) : 1.01

Looking up Nc1ccc(C(=O)O)c(O)c1 , I see its normalized growth listed as 0.996

Data point: CC(=O)CC(c1ccccc1)c1c(O)c2ccccc2oc1=O (stereo unspecified) ; normalized growth = 1.01

Value of normalized growth reported for the molecule CC(C)=CCc1c2c(c(O)c3c(=O)c(O)c(-c4ccccc4)oc13)C=CC(C)(C)O2 is 0.878

Per the records, this molecule ( CC(=O)Nc1cccc(O)c1 ) has normalized growth equal to 0.986

For record O=c1oc2ccccc2c(O)c1Cc1c(O)c2ccccc2oc1=O the listed normalized growth is 0.961

Lab book: normalized growth of CC1(C)O[C@@H]2CC3C4C[C@H](F)C5=CC(=O)C=CC5(C)C4C(O)CC3(C)[C@]2(C(=O)CO)O1 (stereo partly specified) noted as 0.992

Consider CC(=O)Nc1ccc(OC(=O)c2ccccc2O)cc1 . Its measured normalized growth is 0.955

====

experiment: chemical genetic growth profiling, strain panel (AID 1159580);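 also: tested at 20 µM; growth read once vehicle control cultures reached saturation at 30 °C; 1 = growth at the plate median or of vehicle wells; lower values mean less growth of the strain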; conditions: S. cerevisiae deletion strains, growth OD, locus YDL005C, strain med2, hits give low values
In all, about 5,500 compounds went through this assay and about 2,000 (36%) were called active. Another 18% or so got no clear call; they are omitted. This is one part of the list.
reported.metric: normalized growth

Examples from the recorded data:
{"molecule": "CC(=O)Nc1ccc(O)cc1", "data.value": "1.02 (inactive)"}
{"molecule": "COc1cc([C@@H]2c3cc4c(cc3[C@H](O)[C@H]3COC(=O)[C@@H]23)OCO4)cc(OC)c1OC", "data.value": "1.02 (inactive)"}
{"molecule": "CC(=O)Nc1ccc(OC(=O)c2ccccc2O)cc1", "data.value": "0.996 (inactive)"}

# normalized growth (molecule: COc1cc2c3cc1Oc1cc(ccc1O)C[C@@H]1c4c(cc(OC)c(O)c4Oc4ccc(cc4)C[C@@H]3N(C)CC2)CC[N+]1(C)C ) is 1 (inactive)

# normalized growth (molecule: O=C1CC[C@]23C=CC(=O)NCCCCNCCCNC(=O)/C=C/c4ccc(c2c4)O[C@@H]3C1 ) is 1.02 (inactive)

Per the record, CCC(CCC(C)[C@H]1CCC2C3CC=C4C[C@@H](O)CC[C@]4(C)C3CC[C@@]21C)C(C)C (stereo not given in full) has normalized growth of 1.02 (inactive)

Record CC(C(=O)O)[C@H]1CCC2C3CC=C4C[C@@H](O)CC[C@]4(C)C3CC[C@@]21C (stereo not given in full) . Reported normalized growth: 1.05 (inactive)

Entry Nc1ccc(C(=O)Oc2ccccc2)c(O)c1 , normalized growth reported as 0.971 (inactive)

For reference, reported normalized growth for CN(N=O)C(=O)N[C@@H]1[C@@H](O)[C@H](O)[C@@H](CO)O[C@@H]1O stands at 0.98 (inactive)

Query CCCN1C[C@H](CSC)C[C@@H]2c3cccc4[nH]cc(c34)C[C@H]21 yields normalized growth of 0.994 (inactive)
